test system: P. falciparum D-6 clone; test: In vitro antimalarial activity, P. falciparum D-6 clone; format: cell-based; conditions: Plasmodium falciparum; Table 2; D-6 clone, drug-resistant strains of P. falciparum; read-out: IC50 D-6 clone
// reported IC50 per item

molecule | measured_target | measure_unit | IC50
C[C@@H]1CC[C@H]2CC(=O)O[C@@H]3O[C@@]4(C)CC[C@@H]1[C@@]23OO4 | P. falciparum D-6 clone | ng/mL | 2.32
CC[C@H]1C(=O)O[C@@H]2O[C@@]3(C)CC[C@H]4[C@H](C)CC[C@@H]1[C@@]24OO3 | P. falciparum D-6 clone | ng/mL | 0.72
CCc1nc(N)nc(N)c1-c1ccc(Cl)cc1 [pyrimethamine, reference compound] | P. falciparum D-6 clone | ng/mL | 0.35
C[C@@H]1CC[C@H]2CC(=O)N(CC(=O)O)[C@@H]3O[C@@]4(C)CC[C@@H]1[C@@]23OO4 | P. falciparum D-6 clone | ng/mL | 122

====

test system: P. falciparum W-2 clone; experiment: In vitro antimalarial activity, P. falciparum W-2 clone; type: cell-based; details: Plasmodium falciparum; Table 2; W-2 clone, drug-resistant strains of P. falciparum; read-out: IC50 W-2 clone

input_smiles | measured_target | measure_unit | IC50
C[C@@H]1CC[C@H]2C(C)(C)C(=O)O[C@@H]3O[C@@]4(C)CC[C@@H]1[C@]32OO4 | P. falciparum W-2 clone | ng/mL | 25.5
C[C@@H]1CC[C@H]2[C@@H](CCCc3ccccc3)C(=O)O[C@@H]3O[C@@]4(C)CC[C@@H]1[C@]32OO4 | P. falciparum W-2 clone | ng/mL | 0.11
CC(C)[C@H]1C(=O)O[C@@H]2O[C@@]3(C)CC[C@H]4[C@H](C)CC[C@@H]1[C@@]24OO3 | P. falciparum W-2 clone | ng/mL | 0.58
C[C@H]1[C@@H](OOC(C)(C)C)O[C@@H]2O[C@@]3(C)CC[C@H]4[C@H](C)CC[C@@H]1[C@@]24OO3 | P. falciparum W-2 clone | ng/mL | 0.41
CCC[C@H]1C(=O)O[C@@H]2O[C@@]3(C)CC[C@H]4[C@H](C)CC[C@@H]1[C@@]24OO3 | P. falciparum W-2 clone | ng/mL | 0.04
C[C@@H]1CC[C@H]2CC(=O)N(C)[C@@H]3O[C@@]4(C)CC[C@@H]1[C@@]23OO4 | P. falciparum W-2 clone | ng/mL | 0.42

====

// reported Relative potency (W-2 clone) per item
system: P. falciparum W-2 clone; assay: In vitro antimalarial activity, P. falciparum W-2 clone; type: cell-based; conditions: Table 2; W-2 clone; drawing 57 (artemisinin) = 100
metric_name: Relative potency (W-2 clone)

compound | metric_name | recorded_value
C[C@H]1[C@@H](OOC(C)(C)C)O[C@@H]2O[C@@]3(C)CC[C@H]4[C@H](C)CC[C@@H]1[C@@]24OO3 | Relative potency (W-2 clone) | 656
C[C@@H]1CC[C@H]2[C@@H](CC(=O)O)C(=O)O[C@@H]3O[C@@]4(C)CC[C@@H]1[C@]32OO4 | Relative potency (W-2 clone) | 0.3
C[C@@H]1CC[C@H]2[C@@H](CCCc3ccccc3)C(=O)O[C@@H]3O[C@@]4(C)CC[C@@H]1[C@]32OO4 | Relative potency (W-2 clone) | 445
OC(c1cc(C(F)(F)F)nc2c(C(F)(F)F)cccc12)C1CCCCN1 (centres unmarked) [Mefloquine, reference compound] | Relative potency (W-2 clone) | 88
C[C@@H]1CC[C@H]2CC(=O)N(C)[C@@H]3O[C@@]4(C)CC[C@@H]1[C@@]23OO4 | Relative potency (W-2 clone) | 502
CCCCCC[C@H]1C(=O)O[C@@H]2O[C@@]3(C)CC[C@H]4[C@H](C)CC[C@@H]1[C@@]24OO3 | Relative potency (W-2 clone) | 550
CC[C@H]1C(=O)O[C@@H]2O[C@@]3(C)CC[C@H]4[C@H](C)CC[C@@H]1[C@@]24OO3 | Relative potency (W-2 clone) | 1226
C[C@@H]1CC[C@H]2C(C)(C)C(=O)O[C@@H]3O[C@@]4(C)CC[C@@H]1[C@]32OO4 | Relative potency (W-2 clone) | 0.63
C[C@@H]1CC[C@H]2CC(=O)N(Cc3ccccc3)[C@@H]3O[C@@]4(C)CC[C@@H]1[C@@]23OO4 | Relative potency (W-2 clone) | 171
C[C@@H]1CC[C@H]2CC(=O)O[C@@H]3O[C@@]4(C)CC[C@@H]1[C@@]23OO4 | Relative potency (W-2 clone) | 650
O=C1C[C@@H]2CCC[C@@H]3C[C@H]4OO[C@]32[C@H](O1)O4 (relative stereo) | Relative potency (W-2 clone) | 2
CC(C)[C@H]1C(=O)O[C@@H]2O[C@@]3(C)CC[C@H]4[C@H](C)CC[C@@H]1[C@@]24OO3 | Relative potency (W-2 clone) | 84
CCO[C@H]1O[C@@H]2O[C@@]3(C)CC[C@H]4[C@H](C)CC[C@@H]([C@H]1CC)[C@@]24OO3 | Relative potency (W-2 clone) | 272

====

tested on: P. falciparum D-6 clone; assay: In vitro antimalarial activity, P. falciparum D-6 clone; type: cell-based; conditions: Plasmodium falciparum; Table 2; D-6 clone, drug-resistant strains of P. falciparum; read-out: IC50 D-6 clone
metric_name: IC50 (µg/mL)

molecule | recorded_value
OC(c1cc(C(F)(F)F)nc2c(C(F)(F)F)cccc12)C1CCCCN1 (stereo not drawn) [Mefloquine, reference compound] | 0.0437
C[C@@]12CC[C@H]3CCC[C@H]4CC(=O)O[C@H](O1)[C@@]34OO2 (relative stereo) [compound 4580, (±)-6,9-desmethylartemisinin] | 0.0337
CCC[C@H]1C(=O)O[C@@H]2O[C@@]3(C)CC[C@H]4[C@H](C)CC[C@@H]1[C@@]24OO3 | 0.00022

====

test system: P. falciparum W-2 clone; test: In vitro antimalarial activity, P. falciparum W-2 clone; format: cell-based; conditions: Table 2; W-2 clone; drawing 57 (artemisinin) = 100

molecule | Relative potency (W-2 clone)
C[C@@]12CC[C@H]3CCC[C@H]4CC(=O)O[C@H](O1)[C@@]34OO2 (relative stereo) [compound 4580, (±)-6,9-desmethylartemisinin] | 48
CCN(CC)CCCC(C)Nc1ccnc2cc(Cl)ccc12 (stereo not shown) [Chloroquine, reference compound] | 7
CCc1nc(N)nc(N)c1-c1ccc(Cl)cc1 [pyrimethamine, reference compound] | 2
CC(C)CC[C@H]1C(=O)O[C@@H]2O[C@@]3(C)CC[C@H]4[C@H](C)CC[C@@H]1[C@@]24OO3 | 98

====

system: P. falciparum D-6 clone; assay: In vitro antimalarial activity, P. falciparum D-6 clone; type: cell-based; conditions: Table 3; tricyclic analogs; D-6 clone
// reported Relative potency (D-6 clone) per item

molecule | Relative potency (D-6 clone)
C[C@H]1C(=O)O[C@@H]2OC(C)(C)OO[C@@]23CCCC[C@@H]13 (relative stereo) [compound 4582] | 20
CCC1(CC)OO[C@]23CCCC[C@H]2[C@@H](C)C(=O)O[C@@H]3O1 (relative stereo) [compound 4583] | 15
CC1(C)OO[C@]23CCCC[C@H]2CC(=O)O[C@@H]3O1 (relative stereo) [compound 4593] | 0.4
C[C@@H]1CC[C@H]2[C@@H](C)C(=O)O[C@@H]3OC(C)(C)OO[C@@]32C1 [compound 2816] | 108
CC1C(=O)OC(O[Si](C)(C)C(C)(C)C)C2(OO)CCCCC12 (stereo not shown) [compound 4581] | 0
C[C@@H]1CCC[C@@]23CO[C@@](C)(CC[C@@H]12)OO3 [compound 2823] | 37
CCCC[C@H]1C(=O)O[C@@H]2OC(C)(C)OO[C@@]23CCCC[C@@H]13 (relative stereo) [compound 4590] | 5

====

tested on: P. falciparum W-2 clone; test: In vitro antimalarial activity, P. falciparum W-2 clone; assay type: cell-based; conditions: Plasmodium falciparum; Table 2; W-2 clone, drug-resistant strains of P. falciparum; read-out: IC50 W-2 clone
Output met for records whose IC50 is lower than 0.6 ng/mL, not met for records at or above 0.6 ng/mL.

compound | assigned_category
CCC[C@H]1[C@@H](OCC)O[C@@H]2O[C@@]3(C)CC[C@H]4[C@H](C)CC[C@@H]1[C@@]24OO3 | not met
OC(c1cc(C(F)(F)F)nc2c(C(F)(F)F)cccc12)C1CCCCN1 (centres unmarked) [Mefloquine, reference compound] | not met
C[C@@H]1CC[C@H]2CC(=O)N(Cc3ccccc3)[C@@H]3O[C@@]4(C)CC[C@@H]1[C@@]23OO4 | met
CCO[C@H]1O[C@@H]2O[C@@]3(C)CC[C@H]4[C@H](C)CC[C@@H]([C@H]1CC)[C@@]24OO3 | met
CC[C@H]1C(=O)O[C@@H]2O[C@@]3(C)CC[C@H]4[C@H](C)CC[C@@H]1[C@@]24OO3 | met
CCCCCCCCCCCCCC[C@H]1C(=O)O[C@@H]2O[C@@]3(C)CC[C@H]4[C@H](C)CC[C@@H]1[C@@]24OO3 | not met
C[C@@]12CC[C@H]3CCC[C@H]4CC(=O)O[C@H](O1)[C@@]34OO2 (relative stereo) [compound 4580, (±)-6,9-desmethylartemisinin] | not met
CCc1nc(N)nc(N)c1-c1ccc(Cl)cc1 [pyrimethamine, reference compound] | not met
C[C@@H]1CC[C@H]2[C@@H](C)C(=O)O[C@@H]3O[C@@]4(C)CC[C@@H]1[C@]32OO4 [(+)-Artemisinin, reference compound] | not met
CCCCCC[C@H]1C(=O)O[C@@H]2O[C@@]3(C)CC[C@H]4[C@H](C)CC[C@@H]1[C@@]24OO3 | met
C[C@@H]1CC[C@H]2[C@@H](CC(=O)O)C(=O)O[C@@H]3O[C@@]4(C)CC[C@@H]1[C@]32OO4 | not met
C[C@@H]1CC[C@H]2CC(=O)O[C@@H]3O[C@@]4(C)CC[C@@H]1[C@@]23OO4 | met
O=C1C[C@@H]2CCC[C@@H]3C[C@H]4OO[C@]32[C@H](O1)O4 (relative stereo) | not met
CC(C)CC[C@H]1C(=O)O[C@@H]2O[C@@]3(C)CC[C@H]4[C@H](C)CC[C@@H]1[C@@]24OO3 | met
